# Protocol: in vivo
# Condition: Taconic nude, mouse, in vivo, iv, % ID/org Tumor
Outcome measure: tissue uptake dose at 1 h (%ID)
Note: unit %ID is implicit; provide only the numeric part.

Please look at this compound and report its tissue uptake dose at 1 h: NC(=O)[C@@H](CCCCNC(=O)CNC(=O)CCC(=O)NCCc1c[nH]cn1)NC(=O)[C@@H](Cc1ccc(O)cc1)NC(=O)[C@@H](CCCCNC(=O)CNC(=O)CCC(=O)NCCc1c[nH]cn1)NC(=O)Cc1ccc(CN2CCN(CC(=O)O)CCN(CC(=O)O)CC2)cc1 [Al^18F(IMP485)]
8.03

====

# Protocol: Biodistribution of Al^18F(IMP485) alone or TF2 pretargeted
# Condition: nude, mouse, in vivo, iv, 28 uCi, total radioactivity, % ID/g Sm. Int., alone, 3 h post injection
Outcome measure: tissue uptake at 3 h (%ID/g)
Number only, in %ID/g; omit the unit.

Answer with reported tissue uptake at 3 h of NC(=O)[C@@H](CCCCNC(=O)CNC(=O)CCC(=O)NCCc1c[nH]cn1)NC(=O)[C@@H](Cc1ccc(O)cc1)NC(=O)[C@@H](CCCCNC(=O)CNC(=O)CCC(=O)NCCc1c[nH]cn1)NC(=O)Cc1ccc(CN2CCN(CC(=O)O)CCN(CC(=O)O)CC2)cc1 [Al^18F(IMP485)]
0.137

====

# Protocol: in vivo
# Condition: Taconic nude, mouse, in vivo, iv, % ID/g Liver
Outcome measure: tissue uptake at 1 h (%ID/g)
Entry rule: numbers only, all in %ID/g.

Give tissue uptake at 1 h for the following molecule: NC(=O)[C@@H](CCCCNC(=O)CNC(=O)CCC(=O)NCCc1c[nH]cn1)NC(=O)[C@@H](Cc1ccc(O)cc1)NC(=O)[C@@H](CCCCNC(=O)CNC(=O)CCC(=O)NCCc1c[nH]cn1)NC(=O)Cc1ccc(CN2CCN(CC(=O)O)CCN(CC(=O)O)CC2)cc1 [Al^18F(IMP485)]
0.237

====

# Protocol: in vivo
# Condition: Taconic nude, mouse, in vivo, iv, % ID/g Tumor
Outcome measure: tissue uptake at 1 h (%ID/g)
# output: bare number, implied unit %ID/g

Supply measured tissue uptake at 1 h of NC(=O)[C@@H](CCCCNC(=O)CNC(=O)CCC(=O)NCCc1c[nH]cn1)NC(=O)[C@@H](Cc1ccc(O)cc1)NC(=O)[C@@H](CCCCNC(=O)CNC(=O)CCC(=O)NCCc1c[nH]cn1)NC(=O)Cc1ccc(CN2CCN(CC(=O)O)CCN(CC(=O)O)CC2)cc1 [Al^18F(IMP485)] in your reply.
28.1

====

# Protocol: in vivo
# Condition: nude, mouse, in vivo, iv, total radioactivity, % ID/org Lung
Outcome measure: tissue uptake dose at 1 h (%ID)
Give a bare numeral; the unit %ID is implied.

Could you please provide reported tissue uptake dose at 1 h for NC(=O)[C@@H](CCCCNC(=O)CNC(=O)CCC(=O)NCCc1c[nH]cn1)NC(=O)[C@@H](Cc1ccc(O)cc1)NC(=O)[C@@H](CCCCNC(=O)CNC(=O)CCC(=O)NCCc1c[nH]cn1)NC(=O)Cc1ccc(CN2CCN(CC(=O)O)CCN(CC(=O)O)CC2)cc1 [Al^18F(IMP485)] ? Thanks!
0.075

====

# Protocol: in vivo
# Condition: nude, mouse, in vivo, iv, total radioactivity, % ID/g Sm. Int.
Outcome measure: tissue uptake at 1 h (%ID/g)
The figure you give is taken to be in %ID/g; do not add the unit.

Indicate its recorded tissue uptake at 1 h; the compound in question is NC(=O)[C@@H](CCCCNC(=O)CNC(=O)CCC(=O)NCCc1c[nH]cn1)NC(=O)[C@@H](Cc1ccc(O)cc1)NC(=O)[C@@H](CCCCNC(=O)CNC(=O)CCC(=O)NCCc1c[nH]cn1)NC(=O)Cc1ccc(CN2CCN(CC(=O)O)CCN(CC(=O)O)CC2)cc1 [Al^18F(IMP485)]
0.686

====

# Protocol: in vivo
# Condition: nude (Taconic), mouse, in vivo, iv, total radioactivity, % ID/org Tumor
Outcome measure: tissue uptake dose at 3 h (%ID)
// units = %ID; emit number, no label

Look up tissue uptake dose at 3 h of NC(=O)[C@@H](CCCCNC(=O)CNC(=O)CCC(=O)NCCc1c[nH]cn1)NC(=O)[C@@H](Cc1ccc(O)cc1)NC(=O)[C@@H](CCCCNC(=O)CNC(=O)CCC(=O)NCCc1c[nH]cn1)NC(=O)Cc1ccc(CN2CCN(CC(=O)O)CCN(CC(=O)O)CC2)cc1 [Al^18F(IMP485)] and report it.
8.13

====

# Protocol: in vivo
# Condition: nude (Taconic), mouse, in vivo, iv, 28 uCi, total radioactivity, % ID/g Blood
Outcome measure: tissue uptake at 1 h (%ID/g)
Dear colleague, please return just the value in %ID/g, with no unit written.

Determine its reported tissue uptake at 1 h: NC(=O)[C@@H](CCCCNC(=O)CNC(=O)CCC(=O)NCCc1c[nH]cn1)NC(=O)[C@@H](Cc1ccc(O)cc1)NC(=O)[C@@H](CCCCNC(=O)CNC(=O)CCC(=O)NCCc1c[nH]cn1)NC(=O)Cc1ccc(CN2CCN(CC(=O)O)CCN(CC(=O)O)CC2)cc1 [Al^18F(IMP485)]
0.165

====

# Protocol: Biodistribution of Al^18F(IMP485) alone or TF2 pretargeted
# Condition: nude (Taconic), mouse, in vivo, iv, 28 uCi, total radioactivity, % ID/g Spleen, alone, 1 h post injection
Outcome measure: tissue uptake at 1 h (%ID/g)
Hi! Could you send only the number? It should be in %ID/g, unit omitted.

Annotate the molecule NC(=O)[C@@H](CCCCNC(=O)CNC(=O)CCC(=O)NCCc1c[nH]cn1)NC(=O)[C@@H](Cc1ccc(O)cc1)NC(=O)[C@@H](CCCCNC(=O)CNC(=O)CCC(=O)NCCc1c[nH]cn1)NC(=O)Cc1ccc(CN2CCN(CC(=O)O)CCN(CC(=O)O)CC2)cc1 [Al^18F(IMP485)] with its measured tissue uptake at 1 h.
0.21

====

# Protocol: in vivo
# Condition: nude, mouse, in vivo, iv, 28 uCi, total radioactivity, % ID/g Muscle
Outcome measure: tissue uptake at 3 h (%ID/g)
Report as a plain number; the unit %ID/g is understood.

Consider the compound NC(=O)[C@@H](CCCCNC(=O)CNC(=O)CCC(=O)NCCc1c[nH]cn1)NC(=O)[C@@H](Cc1ccc(O)cc1)NC(=O)[C@@H](CCCCNC(=O)CNC(=O)CCC(=O)NCCc1c[nH]cn1)NC(=O)Cc1ccc(CN2CCN(CC(=O)O)CCN(CC(=O)O)CC2)cc1 [Al^18F(IMP485)] and give its recorded tissue uptake at 3 h.
0.013

====

# Protocol: Biodistribution of Al^18F(IMP485) alone or TF2 pretargeted
# Condition: nude (Taconic), mouse, in vivo, iv, 28 uCi, total radioactivity, % ID/org Tumor, alone, 1 h post injection
Outcome measure: tissue uptake dose at 1 h (%ID)
Number only, in %ID; omit the unit.

Return tissue uptake dose at 1 h for the following compound: NC(=O)[C@@H](CCCCNC(=O)CNC(=O)CCC(=O)NCCc1c[nH]cn1)NC(=O)[C@@H](Cc1ccc(O)cc1)NC(=O)[C@@H](CCCCNC(=O)CNC(=O)CCC(=O)NCCc1c[nH]cn1)NC(=O)Cc1ccc(CN2CCN(CC(=O)O)CCN(CC(=O)O)CC2)cc1 [Al^18F(IMP485)]
0.081

====

# Protocol: in vivo
# Condition: nude (Taconic), mouse, in vivo, iv, 28 uCi, total radioactivity, % ID/g Liver
Outcome measure: tissue uptake at 1 h
State the value, then name its unit.

For the compound NC(=O)[C@@H](CCCCNC(=O)CNC(=O)CCC(=O)NCCc1c[nH]cn1)NC(=O)[C@@H](Cc1ccc(O)cc1)NC(=O)[C@@H](CCCCNC(=O)CNC(=O)CCC(=O)NCCc1c[nH]cn1)NC(=O)Cc1ccc(CN2CCN(CC(=O)O)CCN(CC(=O)O)CC2)cc1 [Al^18F(IMP485)] , give its measured tissue uptake at 1 h value.
0.176 %ID/g

====

# Protocol: in vivo
# Condition: nude, mouse, in vivo, iv, total radioactivity, % ID/g Stomach
Outcome measure: tissue uptake at 1 h
Provide the measurement as a number trailed by its unit.

For the compound NC(=O)[C@@H](CCCCNC(=O)CNC(=O)CCC(=O)NCCc1c[nH]cn1)NC(=O)[C@@H](Cc1ccc(O)cc1)NC(=O)[C@@H](CCCCNC(=O)CNC(=O)CCC(=O)NCCc1c[nH]cn1)NC(=O)Cc1ccc(CN2CCN(CC(=O)O)CCN(CC(=O)O)CC2)cc1 [Al^18F(IMP485)] , give its measured tissue uptake at 1 h value.
0.534 %ID/g

====

# Protocol: in vivo
# Condition: Taconic nude, mouse, in vivo, iv, % ID/org Sm. Int.
# Description: Mice were necropsied at 1 and 3 h post injection, 7 mice per time point. Biodistribution studies were performed in Taconic nude mice bearing subcutaneous LS174T tumor xenografts. Mice were necropsied at 1 and 3 h post injection, 6 mice per time point.
Outcome measure: tissue uptake dose at 1 h (%ID)
Write down the numeric answer in %ID and omit the unit.

Find the measured tissue uptake dose at 1 h of NC(=O)[C@@H](CCCCNC(=O)CNC(=O)CCC(=O)NCCc1c[nH]cn1)NC(=O)[C@@H](Cc1ccc(O)cc1)NC(=O)[C@@H](CCCCNC(=O)CNC(=O)CCC(=O)NCCc1c[nH]cn1)NC(=O)Cc1ccc(CN2CCN(CC(=O)O)CCN(CC(=O)O)CC2)cc1 [Al^18F(IMP485)] and report it.
0.586
